List of melting point values.

Below: 5 molecules and their reported melting point.
INPUT: What does the record list as melting point for "CC(C)Cc1ccc(S(=O)(=O)NC(=O)OC(C)C)c(-c2cccc(Cn3cccn3)c2)c1" ?
OUTPUT: 146.6 to 147.5 °C

INPUT: Which melting point is reported for this molecule? "CCCCOC(=O)NS(=O)(=O)c1ccc(CCCC)cc1-c1cccc(Cn2cncn2)c1"
OUTPUT: 150.1 to 151.4 °C

INPUT: Reported melting point for "CCCCOC(=O)NS(=O)(=O)c1ccc(CC(C)C)cc1-c1cccc(Cn2cncn2)c1" : what is it?
OUTPUT: 148.1 to 149.3 °C

INPUT: What does the data say about its melting point? Entry: "CCCCOC(=O)NS(=O)(=O)c1ccc(CCCC)cc1-c1cccc(Cn2cccn2)c1"
OUTPUT: 142.5 to 143.1 °C

INPUT: What measured melting point goes with "CCCCC(=O)NS(=O)(=O)c1ccc(CCCC)cc1-c1cccc(Cn2cncn2)c1" ?
OUTPUT: 141.8 to 142.4 °C

Others:
INPUT: Bench note: what melting point did "CCCCc1ccc(S(=O)(=O)NC(=O)OCC(C)C)c(-c2cccc(Cn3cncn3)c2)c1" show?
OUTPUT: 168.4 to 169.1 °C

INPUT: Quick one: melting point for "CCCCc1ccc(S(=O)(=O)NC(=O)OCC(C)C)c(-c2cccc(Cn3cccn3)c2)c1" ?
OUTPUT: 149.3 to 151.2 °C

INPUT: Recorded melting point for "CCCCOC(=O)NS(=O)(=O)c1ccc(CC(C)C)cc1-c1cccc(Cn2cccn2)c1" , please?
OUTPUT: 129.1 to 131.4 °C
